system: HCT-15; experiment: Antitumor activity against human HCT15 cells assessed as cell growth at 10 uM after 48 hrs by sulforhodamine B assay; format: functional; settings: HCT-15, 48 h, read-out: Activity

structureNotation: CN1C/C(=C\c2ccc(Cl)cc2)C(=O)[C@]2(C1)[C@@H](c1ccc(Cl)cc1)CN(C)[C@@]21C(=O)Nc2ccccc21
growth at 10 µM: 68.5%
//
structureNotation: COc1ccc(/C=C2\CN(C)C[C@@]3(C2=O)[C@@H](c2ccccc2)CN(C)[C@@]32C(=O)Nc3ccccc32)cc1
growth at 10 µM: 50.8%
//
structureNotation: CN1C/C(=C\c2ccc(-c3cccs3)cc2)C(=O)[C@]2(C1)[C@@H](c1ccc(-c3cccs3)cc1)CN(C)[C@@]21C(=O)N(C)c2ccccc21
growth at 10 µM: 62.1%
//
structureNotation: CN1C/C(=C\c2ccc(Cl)cc2)C(=O)[C@]2(C1)[C@@H](c1ccc(Cl)cc1)CN(C)[C@@]21C(=O)N(C)c2ccccc21
growth at 10 µM: 76.2%

Taken from ChEMBL document CHEMBL1138574.
